Cited source for all entries: patent US20230293517A1

Below are Ki values measured for human Adenosine A3 receptor (Homo sapiens (Human), UniProt P0DMS8).
Readout Type: Ki (nM)

Worked set:
**Query** I am curious: what Ki value has been reported for `Cc1cc(-c2sc(NC(=O)N3CCN[C@@H](C(N)=O)C3)nc2-c2cccc(C#N)c2)cc(Cl)n1` ?
**Result** 247

**Query** I am curious: what Ki value has been reported for Cc1cc(-c2sc(NC(=O)N3CCN4C(=O)NC(=O)C4C3)nc2-c2cccc(C#N)c2)cc(C)n1 (stereo not drawn) ?
**Result** 394

**Query** I am curious: what Ki value has been reported for `Cc1cc(-c2sc(NC(=O)N3CCC(C)(N)CC3)nc2-c2cccc(C#N)c2)cc(Cl)n1` ?
**Result** 125

**Query** I am curious: what Ki value has been reported for `Cc1cc(-c2sc(NC(=O)N3CC[C@H](O)C3)nc2-c2cccc(C#N)c2)cc(C)n1` ?
**Result** 94

**Query** I am curious: what Ki value has been reported for `Cc1cc(-c2sc(NC(=O)N3CC(C#N)C3)nc2-c2cccc(C#N)c2)cc(C)n1` ?
**Result** 130

(a) Cc1cc(-c2sc(NC(=O)N3CCNCC3)nc2-c2cccc(C#N)c2)cc(C)n1
(b) Cc1cc(-c2sc(NC(=O)N3CC4(CCN(C)C4=O)C3)nc2-c2cccc(C#N)c2)cc(C)n1
(c) COCc1cc(-c2sc(NC(=O)N3CC4(COC4)C3)nc2-c2cccc(C#N)c2)cc(C)n1
**Query** Falling order of Ki, please. Record the ranking as a list of labels in the requested order.
**Result** c, a, b
(c: 1560 nM, a: 304 nM, b: 98 nM)

* * *

target: human Adenosine A2b receptor (Homo sapiens (Human)); test: Adenosine receptor TR-FRET binding assay (A2b); conditions: TR-FRET, inhibition of binding of 30 nM CA200645, CHO cell membranes
pKi: −log10 of the molar value.
Readout Type: pKi

**Query** Query pKi on human Adenosine A2b receptor (Homo sapiens (Human)) for Cc1cc(-c2sc(NC(=O)N3CC[C@H](C(C)(C)O)C3)nc2-c2cccc(C#N)c2)cc(C)n1 [Example 6.48]
**Result** 8.77

**Query** Query pKi on human Adenosine A2b receptor (Homo sapiens (Human)) for CC(=O)N1CCN(C(=O)Nc2nc(-c3cccc(C#N)c3)c(-c3cc(C)nc(C)c3)s2)CC1 [Example 4.17]
**Result** 8.55

**Query** Query pKi on human Adenosine A2b receptor (Homo sapiens (Human)) for Cc1cc(-c2sc(NC(=O)N3CCC4(CCC(=O)N4C)CC3)nc2-c2cccc(C#N)c2)cc(C)n1 [Example 6.94]
**Result** 7.95

**Query** Query pKi on human Adenosine A2b receptor (Homo sapiens (Human)) for Cc1cc(-c2sc(NC(=O)N3CCN(S(C)(=O)=O)CC3)nc2-c2cccc(C#N)c2)cc(C)n1 [Example 4.18]
**Result** 8.64

**Query** Query pKi on human Adenosine A2b receptor (Homo sapiens (Human)) for Cc1cc(-c2sc(NC(=O)N3CCN[C@@H](C(=O)O)C3)nc2-c2cccc(C#N)c2)cc(Cl)n1 [Example 5]
**Result** 8.26

(I) Cc1cc(-c2sc(NC(=O)N3CCC4(CNCCO4)C3)nc2-c2cccc(C#N)c2)cc(C)n1 (centres unmarked) [Example 13.12]
(II) Cc1cc(-c2sc(NC(=O)N3CCOCC3)nc2-c2cccc(C#N)c2)cc(Cl)n1 [Example 1]
**Query** // compare measured pKi, left I , right II , return larger Indicate your choice by writing its label.
**Result** II

(1) Cc1cc(-c2sc(NC(=O)N3CCNCC3CC3CC3)nc2-c2cccc(C#N)c2)cc(C)n1 (centres unmarked) [Example 14.5]
(2) Cc1cc(-c2sc(NC(=O)N3CCN(C4COC4)CC3)nc2-c2cccc(C#N)c2)cc(C)n1 [Example 4.4]
(3) Cc1cc(-c2sc(NC(=O)N3[C@H](C)CNC[C@H]3C)nc2-c2cccc(C#N)c2)cc(C)n1 [Example 7.8]
**Query** Falling order of pKi, please. Record the ranking as a list of labels in the requested order.
**Result** 1, 2, 3
(1: 8.60, 2: 8.35, 3: 7.22)

(1) Cc1cc(-c2sc(NC(=O)N3CCN[C@H](C#N)C3)nc2-c2cccc(C#N)c2)cc(C)n1 [Example 13.14]
(2) [2H]C([2H])([2H])c1cc(-c2sc(NC(=O)N3CCC(C)(C#N)CC3)nc2-c2cccc(C#N)c2)cc(C([2H])([2H])[2H])n1 [Example 28]
**Query** // compare measured pKi, left 1 , right 2 , return larger Indicate your choice by writing its label.
**Result** 2

(a) Cc1cc(-c2sc(NC(=O)N3CCN(C4COC4)CC3)nc2-c2cccc(C#N)c2)cc(Cl)n1 [Example 3.11]
(b) Cc1cc(-c2sc(NC(=O)N3CCN[C@H](C(C)(C)O)C3)nc2-c2cccc(C#N)c2)cc(Cl)n1 [Example 3.9]
**Query** # min-compare on pKi between a and b Indicate your choice by writing its label.
**Result** b
(b: 8.66, a: 8.92)

(P) Cc1cc(-c2sc(NC(=O)N3CC4(CCOC4)C3)nc2-c2cccc(C#N)c2)cc(C)n1 [Example 6.53]
(Q) Cc1cc(-c2sc(NC(=O)N3CC4(CCOC4)C3)nc2-c2cccc(C#N)c2)cc(C(C)(C)O)n1 [Example 12.1]
**Query** # min-compare on pKi between P and Q Indicate your choice by writing its label.
**Result** Q
(Q: 8.51, P: 8.80)

* * *

molecular target: human Adenosine A2b receptor (Homo sapiens (Human), UniProt P29275); test: Adenosine receptor TR-FRET binding assay (A2b); settings: TR-FRET, inhibition of binding of 30 nM CA200645, CHO cell membranes
Sequence (P29275 whole entry): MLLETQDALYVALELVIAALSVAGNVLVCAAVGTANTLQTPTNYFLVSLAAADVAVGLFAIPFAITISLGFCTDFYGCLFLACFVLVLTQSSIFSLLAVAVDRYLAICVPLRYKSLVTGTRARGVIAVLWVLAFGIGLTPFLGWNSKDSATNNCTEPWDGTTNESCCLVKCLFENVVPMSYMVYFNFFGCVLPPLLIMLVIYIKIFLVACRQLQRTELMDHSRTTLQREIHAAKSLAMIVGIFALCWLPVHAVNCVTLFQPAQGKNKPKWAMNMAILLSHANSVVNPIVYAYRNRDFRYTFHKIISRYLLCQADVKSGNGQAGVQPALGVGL
Readout Type: Ki (nM)

**Query** I am curious: what Ki value has been reported for Cc1cc(-c2sc(NC(=O)N3CC(C)(C#N)C3)nc2-c2cccc(C#N)c2)cc(C)n1 [Example 6.7] ?
**Result** 0.7

**Query** I am curious: what Ki value has been reported for Cc1cc(-c2sc(NC(=O)N3CC4(COC4)C3)nc2-c2cccc(C#N)c2)cc(C)[n+]1[O-] [Example 17] ?
**Result** 10

**Query** I am curious: what Ki value has been reported for Cc1cc(-c2sc(NC(=O)N3CC(C)(O)C3)nc2-c2cccc(C#N)c2)cc(C)n1 [Example 4.9] ?
**Result** 1.5

**Query** I am curious: what Ki value has been reported for Cc1cc(-c2sc(NC(=O)N3CC[C@@H](C(N)=O)C3)nc2-c2cccc(C#N)c2)cc(C)n1 [Example 6.8] ?
**Result** 1.1

**Query** I am curious: what Ki value has been reported for CNC(=O)C1CCN(C(=O)Nc2nc(-c3cccc(C#N)c3)c(-c3cc(C)nc(C)c3)s2)CC1 [Example 6.28] ?
**Result** 3.2

(I) Cc1cc(-c2sc(NC(=O)N3CC[C@H](C(=O)O)C3)nc2-c2cccc(C#N)c2)cc(C)n1 [Example 6.63]
(II) Cc1cc(-c2sc(NC(=O)N3CCC4(COCCN4)C3)nc2-c2cccc(C#N)c2)cc(C)n1 (stereo not shown) [Example 13.9]
**Query** # min-compare on Ki between I and II Indicate your choice by writing its label.
**Result** II
(II: 14.9 nM, I: 29.2 nM)

(P) Cc1cc(-c2sc(NC(=O)N3C[C@H]4CC[C@@H]3CN4)nc2-c2cccc(C#N)c2)cc(C)n1 [Example 7.6]
(Q) COC1(C#N)CCN(C(=O)Nc2nc(-c3cccc(C#N)c3)c(-c3cc(C)nc(C)c3)s2)CC1 [Example 4.22]
(R) Cc1cc(-c2sc(NC(=O)N3CCC4(COC4)C3)nc2-c2cccc(C#N)c2)cc(C)n1 [Example 6.81]
**Query** Please order the records by their reported Ki, lowest number first. Record the ranking as a list of labels in the requested order.
**Result** Q, R, P

* * *

target: human Adenosine A3 receptor (Homo sapiens (Human))
Sequence (P0DMS8 whole entry): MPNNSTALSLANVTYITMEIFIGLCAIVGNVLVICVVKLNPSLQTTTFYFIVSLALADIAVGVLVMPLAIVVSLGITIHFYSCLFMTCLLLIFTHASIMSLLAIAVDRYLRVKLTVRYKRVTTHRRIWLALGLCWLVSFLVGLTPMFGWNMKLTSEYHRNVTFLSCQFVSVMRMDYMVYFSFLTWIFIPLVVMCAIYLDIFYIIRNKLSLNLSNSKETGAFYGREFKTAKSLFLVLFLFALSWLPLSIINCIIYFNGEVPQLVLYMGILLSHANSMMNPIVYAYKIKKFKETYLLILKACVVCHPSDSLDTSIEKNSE
Readout Type: Ki (nM)

**Query** I am curious: what Ki value has been reported for Cc1cc(-c2sc(NC(=O)N3C[C@@H]4OCCN(C)[C@@H]4C3)nc2-c2cccc(C#N)c2)cc(C)n1 (racemic) [Example 6.98] ?
**Result** 819

(I) Cc1cc(-c2sc(NC(=O)N3CCN4C(=O)OCCC4C3)nc2-c2cccc(C#N)c2)cc(C)n1 (stereo not drawn) [Example 6.17]
(II) Cc1cc(-c2sc(NC(=O)N3CC[S+]([O-])CC3)nc2-c2cccc(C#N)c2)cc(C(F)F)n1 [Example 6.19]
**Query** # min-compare on Ki between I and II Indicate your choice by writing its label.
**Result** II
